# Measured Target: D(1A) dopamine receptor (Homo sapiens); note: assay procedure not described here
# Sequence (P21728 whole entry): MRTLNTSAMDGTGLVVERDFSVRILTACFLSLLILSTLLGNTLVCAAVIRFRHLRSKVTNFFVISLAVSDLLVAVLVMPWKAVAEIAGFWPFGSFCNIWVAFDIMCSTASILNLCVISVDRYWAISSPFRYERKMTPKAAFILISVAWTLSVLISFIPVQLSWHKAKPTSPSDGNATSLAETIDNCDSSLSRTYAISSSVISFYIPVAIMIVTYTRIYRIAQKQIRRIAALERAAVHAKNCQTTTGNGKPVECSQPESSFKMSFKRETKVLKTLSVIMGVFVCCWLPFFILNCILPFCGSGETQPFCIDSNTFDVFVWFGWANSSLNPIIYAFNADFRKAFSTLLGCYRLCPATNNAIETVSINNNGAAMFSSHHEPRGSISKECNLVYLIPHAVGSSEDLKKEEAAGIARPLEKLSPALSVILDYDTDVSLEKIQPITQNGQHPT
# Assay type: functional, cell-based
I'd be grateful if you could share measured AC50 for these entries.

Query string: Reported AC50 for O=C(Cc1ccc(-c2ccccc2)cc1)Nc1ccccn1 [DIFENPIRAMIDE] : what is it?
Result string: > 30 µM

Query string: Same question for Cn1c(=O)c2c(ncn2CC2OCCO2)n(C)c1=O [DOXOFYLLINE] please.
Result string: > 30 µM

Query string: Same question for C[C@H](CSC(=O)c1ccccc1)C(=O)N1C[C@@H](Sc2ccccc2)C[C@H]1C(=O)O [ZOFENOPRIL] please.
Result string: > 10 µM

Query string: Same question for O=[N+]([O-])O[C@@H]1CO[C@H]2[C@@H]1OC[C@@H]2O [ISOSORBIDE MONONITRATE] please.
Result string: > 10 µM

Query string: Same question for O=C1C(O)=C([C@H]2CC[C@H](c3ccc(Cl)cc3)CC2)C(=O)c2ccccc21 [ATOVAQUONE] please.
Result string: > 30 µM

Query string: Same question for O=P1(NCCCl)OCCCN1CCCl (centres undefined) [IFOSFAMIDE] please.
Result string: > 30 µM

Query string: Same question for C[C@]12CCC(=O)C=C1CC[C@@H]1[C@@H]2[C@@H](O)C[C@@]2(C)[C@H]1CC[C@]2(O)C(=O)CO [HYDROCORTISONE] please.
Result string: > 10 µM

Query string: Same question for CC(Oc1c(Cl)cccc1Cl)C1=NCCN1 (centres undefined) [LOFEXIDINE] please.
Result string: > 30 µM

Query string: Same question for c1ccc([C@H]2CN3CCSC3=N2)cc1 [LEVAMISOLE] please.
Result string: 1.6 µM

Query string: Same question for Nc1ccn([C@H]2CC[C@@H](CO)O2)c(=O)n1 [ZALCITABINE] please.
Result string: > 10 µM

Query string: Same question for COc1ccc(CC(C)(C)NC[C@H](O)c2cc(O)cc3c2OCC(=O)N3)cc1 [OLODATEROL] please.
Result string: > 30 µM

Query string: Same question for C[C@]12CC[C@H]3[C@@H](CCC4=CC(=O)CC[C@@]43C)[C@@H]1CC[C@@H]2O [TESTOSTERONE] please.
Result string: > 30 µM

Query string: Same question for CCN1CCN(C(=O)N[C@@H](C(=O)N[C@@H]2C(=O)N3C(C(=O)O)=C(CSc4nnnn4C)CS[C@H]23)c2ccc(O)cc2)C(=O)C1=O [CEFOPERAZONE] please.
Result string: > 30 µM

Query string: Same question for CCCC(=O)O[C@]1(C(=O)CO)CC[C@H]2[C@@H]3CCC4=CC(=O)CC[C@]4(C)[C@H]3[C@@H](O)C[C@@]21C [HYDROCORTISONE BUTYRATE] please.
Result string: > 10 µM

Query string: Same question for COc1cccc(C2(O)CCCCC2CN(C)C)c1 (centres undefined) [TRAMADOL] please.
Result string: > 10 µM

Query string: Same question for C=CCC1(C(C)CC)C(=O)NC(=O)NC1=O (centres undefined) [TALBUTAL] please.
Result string: > 10 µM

Query string: Same question for CN1C(=O)C(O)N=C(c2ccccc2Cl)c2cc(Cl)ccc21 (centres undefined) [LORMETAZEPAM] please.
Result string: > 30 µM

Query string: Same question for CO[C@H]1C[C@@H]2CC[C@@H](C)[C@@](O)(O2)C(=O)C(=O)N2CCCC[C@H]2C(=O)O[C@H]([C@H](C)C[C@@H]2CC[C@@H](O)[C@H](OC)C2)CC(=O)[C@H](C)/C=C(\C)[C@@H](O)[C@@H](OC)C(=O)[C@H](C)C[C@H](C)/C=C/C=C/C=C/1C [SIROLIMUS] please.
Result string: > 10 µM

Query string: Same question for CCCCCCOc1ccccc1C(N)=O [EXALAMIDE] please.
Result string: > 30 µM
